All figures here come from ChEMBL document CHEMBL3297718.

Below, each of the compounds is paired with its reported MIC value.
Tested on: Bacillus subtilis
Test: Antimicrobial activity against Bacillus subtilis MTCC 441 by broth microdilution method
Type: functional
Numeric only. Scale: µg/mL

Here is how some compounds turned out for MIC.
> print(dat)
                              smiles.string  obs.value
1  Cc1nn(-c2ccccc2)c(-n2ccnc2)c1-c1cc(-c2ccc(Br)cc2)nc(N)c1C#N        200
2  Cc1cn(-c2c(-c3cc(-c4ccco4)nc(N)c3C#N)c(C)nn2-c2ccccc2)cn1        500
3  Cc1nn(-c2ccccc2)c(-n2ccnc2)c1-c1cc(-c2ccc(F)cc2)nc(N)c1C#N        200
4       Cc1cn(-c2c(C=O)c(C)nn2-c2ccccc2)cn1        100

// next entry
Inquiry: For Cc1nn(-c2ccccc2)c(-n2ccnc2)c1C=O , what is its reported MIC?
Reply text: 250
